target under test: Sodium/iodide cotransporter (Rattus norvegicus)
Sequence (Q63008 whole entry): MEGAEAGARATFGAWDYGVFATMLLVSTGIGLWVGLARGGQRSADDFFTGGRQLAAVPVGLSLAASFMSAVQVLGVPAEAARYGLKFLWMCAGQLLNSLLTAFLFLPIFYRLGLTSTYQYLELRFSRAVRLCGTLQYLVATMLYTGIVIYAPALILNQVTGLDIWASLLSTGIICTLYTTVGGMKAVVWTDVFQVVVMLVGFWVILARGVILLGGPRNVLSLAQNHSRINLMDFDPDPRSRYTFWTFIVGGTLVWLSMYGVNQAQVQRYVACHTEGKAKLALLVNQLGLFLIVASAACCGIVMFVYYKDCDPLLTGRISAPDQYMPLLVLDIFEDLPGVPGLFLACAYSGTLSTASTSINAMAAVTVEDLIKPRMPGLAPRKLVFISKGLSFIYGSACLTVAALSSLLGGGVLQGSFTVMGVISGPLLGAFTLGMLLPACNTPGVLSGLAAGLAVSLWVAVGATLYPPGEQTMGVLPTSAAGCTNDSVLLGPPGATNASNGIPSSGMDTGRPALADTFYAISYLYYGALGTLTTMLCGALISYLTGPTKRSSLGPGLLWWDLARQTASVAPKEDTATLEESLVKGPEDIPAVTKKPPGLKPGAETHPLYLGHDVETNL
experiment: Inhibition of sodium iodide symporter in rat FRTL5 cells assessed as decrease in sodium iodide uptake after 60 mins by scintillation counting method
Format: cell-based, FRTL-5
endpoint: IC50 (nM)
Expressed in nM, but write only the number.

compound | target under test | unit spec | IC50
F[P-](F)(F)(F)(F)F.[Na+] | Sodium/iodide cotransporter (Rattus norvegicus) | nM | 9
O=[N+]([O-])O | Sodium/iodide cotransporter (Rattus norvegicus) | nM | 250000
[O-][Cl+3]([O-])([O-])O [PERCHLORATE] | Sodium/iodide cotransporter (Rattus norvegicus) | nM | 140
F[B-](F)(F)F | Sodium/iodide cotransporter (Rattus norvegicus) | nM | 750

Okay, now this compound:
Item: N#CS [THIOCYANIC ACID] Test system: Sodium/iodide cotransporter (Rattus norvegicus) Read-out: IC50 Value: ?
14000
